# assay_explanation: Cytotoxicity against human HCT116 cells assessed as growth inhibition after 72 hrs by sulforhodamine B assay
# Format: functional, cell-based, HCT-116
# conditions_used: Homo sapiens, HCT-116, 72 h; read-out: IC50
Classification field. Basis: IC50. Definitions: small value = under 6 µM, mid value = from 6 µM up to 9 µM, large value = 9 µM and over

query: Classify this compound: CC(C)Cc1ccc(C(C)c2nnc3n2N=C(c2ccc(Cl)cc2)CS3)cc1 (stereo not given)
result: mid value

query: Classify this compound: CC(C)Cc1ccc(C(C)c2nnc3n2N=C(c2ccc(F)cc2)CS3)cc1 (stereo not given)
result: large value

query: Classify this compound: CC(c1ccc(-c2ccccc2)c(F)c1)c1nnc2n1N=C(c1ccc(F)cc1)CS2 (stereo not given)
result: large value

query: Classify this compound: Cc1ccc(C2=Nn3c(nnc3C(C)c3ccc(CC(C)C)cc3)SC2)cc1 (stereo not given)
result: small value

query: Classify this compound: Cc1ccc(C2=Nn3c(nnc3C(C)c3ccc(-c4ccccc4)c(F)c3)SC2)cc1 (stereo not given)
result: small value

query: Classify this compound: COc1ccc(C2=Nn3c(nnc3C(C)c3ccc4cc(OC)ccc4c3)SC2)cc1 (stereo not given)
result: mid value

query: Classify this compound: CC(C)Cc1ccc(C(C)c2nnc3n2N=C(c2ccccc2)CS3)cc1 (stereo not given)
result: mid value

query: Classify this compound: COc1ccc2cc(C(C)c3n[nH]c(=S)n3N)ccc2c1 (stereo not given)
result: large value

---

# Tested on: Huh-7
# assay_explanation: Induction of apoptosis in human HuH7 cells assessed as nuclear condensation at 10 uM after 48 hrs by Hoechst 33258 staining-based immunofluorescence microscopy
# Format: functional, cell-based
Activity calls are given as the source filed them. The rule behind the calls is not given here.
The reply should be one of these categories: 1.0 (active), 0.0 (inactive)

>  <molecule>
CC(C)Cc1ccc(C(C)c2nnc3n2N=C(c2ccc(Br)cc2)CS3)cc1 (stereo not given)

>  <answer_label>
1.0

$$$$
>  <molecule>
CC(c1ccc(-c2ccccc2)c(F)c1)c1nnc2n1N=C(c1ccc(F)cc1)CS2 (stereo not given)

>  <answer_label>
1.0

$$$$
>  <molecule>
Cc1ccc(C2=Nn3c(nnc3C(C)c3ccc(CC(C)C)cc3)SC2)cc1 (stereo not given)

>  <answer_label>
1.0

$$$$
>  <molecule>
CC(C)Cc1ccc(C(C)c2nnc3n2N=C(c2ccc(OC(F)(F)F)cc2)CS3)cc1 (stereo not given)

>  <answer_label>
1.0

$$$$
>  <molecule>
CC(c1ccc(-c2ccccc2)c(F)c1)c1nnc2n1N=C(c1ccc([N+](=O)[O-])cc1)CS2 (stereo not given)

>  <answer_label>
0.0

$$$$

query: Which outcome did this test record for the molecule COc1ccc(C2=Nn3c(nnc3C(C)c3ccc(CC(C)C)cc3)SC2)cc1 (stereo not given) ?
result: 1.0

query: Which outcome did this test record for the molecule CC(c1ccc(-c2ccccc2)c(F)c1)c1nnc2n1N=C(c1ccc(Cl)cc1)CS2 (stereo not given) ?
result: 1.0

query: Which outcome did this test record for the molecule CC(c1ccc(-c2ccccc2)c(F)c1)c1nnc2n1N=C(c1ccc(Br)cc1)CS2 (stereo not given) ?
result: 0.0

query: Which outcome did this test record for the molecule COc1ccc(C2=Nn3c(nnc3C(C)c3ccc(-c4ccccc4)c(F)c3)SC2)cc1 (stereo not given) ?
result: 1.0

query: Which outcome did this test record for the molecule CC(c1ccc(-c2ccccc2)c(F)c1)c1nnc2n1N=C(c1ccc(Cl)cc1Cl)CS2 (stereo not given) ?
result: 1.0

Attribution: ChEMBL document CHEMBL3751842
